Ref: patent US20090311176A1

Would you mind telling me the reported chromatographic logD of each entry?
# Assay text: Log D determined via HPLC
# Assay type: physicochemical
Numbers only.

Answered examples (2):
>>> value_reported("CCN(CC)C(=O)Cc1c(-c2ccc(OC)cc2)nn2c(C)cc(C)nc12 [DPA-713]")
2.44
>>> value_reported("CCC(C)N(C)C(=O)c1cc2ccccc2c(-c2ccccc2Cl)n1 (stereo not drawn) [PK 11195]")
3.35

With those in mind, consider the next molecule.
Ask: Indicate its recorded chromatographic logD; the molecule in question is CCN(CC)C(=O)Cc1c(-c2ccc(OCCF)cc2)nn2c(C)cc(C)nc12 [DPA-714]
Result: 2.44

###

# Tested target: CBR
# Assay text: CBR binding with [^3H]Ro 15-1788, rat brain tissue
# Measurement context: [^3H]Ro 15-1788 radioligand, rat brain tissue
Measured property: Ki

Answered examples (2):
>>> value_reported("CCC(C)N(C)C(=O)c1cc2ccccc2c(-c2ccccc2Cl)n1 (stereo not drawn)")
"> 10000 nM"
>>> value_reported("CCN(CC)C(=O)Cc1c(-c2ccc(OCCF)cc2)nn2c(C)cc(C)nc12")
"> 10000 nM"

With those in mind, consider the next compound.
Ask: Tell me Ki of CCN(CC)C(=O)Cc1c(-c2ccc(OC)cc2)nn2c(C)cc(C)nc12 when tested on CBR.
Result: > 10000 nM
